subject-of-test: CCR4 receptor (Homo sapiens, UniProt P51679)
Construct: beta-galactosidase enzyme-fragment tag; From own knowledge, PathHunter uses a ProLink/enzyme-donor fragment, usually at the receptor's C-terminus; expressed in transfected cells; host or cells: CHO-K1
Sequence (P51679 1-360): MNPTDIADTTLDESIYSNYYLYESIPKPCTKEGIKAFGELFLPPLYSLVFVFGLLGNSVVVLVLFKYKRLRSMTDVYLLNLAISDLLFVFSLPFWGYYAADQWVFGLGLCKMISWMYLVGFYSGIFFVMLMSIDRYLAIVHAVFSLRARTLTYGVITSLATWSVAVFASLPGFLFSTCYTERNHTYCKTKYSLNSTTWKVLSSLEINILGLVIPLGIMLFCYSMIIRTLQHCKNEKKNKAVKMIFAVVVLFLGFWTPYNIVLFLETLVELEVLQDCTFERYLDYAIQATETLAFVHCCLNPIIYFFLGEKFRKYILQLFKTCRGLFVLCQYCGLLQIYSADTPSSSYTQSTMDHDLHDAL
assay-remarks: CCR4 antagonist activity in Beta-Arrestin Cellular Assay (PathHunter, CCL22 challenge)
Format: cell-based
test-conditions: CHO-K1 cells expressing the CCR4 receptor; CCL22 at EC80 (15 nM), 90 minutes; 30 min pre-incubation; read-out: Potency (CCR4 antagonist IC50 in the β-arrestin assay)
# maps each entry to its IC50

molecule: C[C@@H](Nc1cc(N2CCC([C@H]3CCCN(C4CCCC4)C3)CC2)nc2ncnn12)c1ccc(Cl)cc1Cl
val: < 100 nM

The reported CCR4 receptor (Homo sapiens, UniProt P51679) IC50 of C[C@@H](Nc1cc(N2CCC([C@H]3CCCN(C4CC(S(C)(=O)=O)C4)C3)CC2)nc2ncnn12)c1ccc(Cl)cc1Cl (mixture of isomers) is < 100 nM

The reported CCR4 receptor (Homo sapiens, UniProt P51679) IC50 of `CNC(=O)CCN1CCC[C@H](C2CCN(c3cc(N[C@H](C)c4ccc(Cl)cc4Cl)n4ncnc4n3)CC2)C1` is < 100 nM

The reported CCR4 receptor (Homo sapiens, UniProt P51679) IC50 of `C[C@@H](Nc1cc(N2CCC([C@H]3CCCN([C@H]4C[C@](C)(C(=O)O)C4)C3)CC2)nc2ncnn12)c1ccc(Cl)cc1Cl` is 100 to 500 nM

The reported CCR4 receptor (Homo sapiens, UniProt P51679) IC50 of `C[C@@H](Nc1cc(N2CCC([C@H]3CCCN([C@H]4C[C@](C)(C(=O)O)C4)C3)CC2)nc2nccn12)c1ccc(Cl)cc1Cl` is < 100 nM

The reported CCR4 receptor (Homo sapiens, UniProt P51679) IC50 of CC(CN1CCC[C@H](C2CCN(c3cc(N[C@H](C)c4ccc(Cl)cc4Cl)n4ncnc4n3)CC2)C1)C(=O)O (mixture of isomers) is < 100 nM

* * *

# maps each entry to its pIC50
subject-of-test: CCR4 receptor (Homo sapiens, UniProt P51679)
Construct: beta-galactosidase enzyme-fragment tag; From own knowledge, PathHunter uses a ProLink/enzyme-donor fragment, usually at the receptor's C-terminus
assay-remarks: CCR4 antagonist activity in Beta-Arrestin Cellular Assay (PathHunter, CCL22 challenge)
test-conditions: CHO-K1 cells expressing the CCR4 receptor; CCL22 at EC80 (15 nM), 90 minutes; 30 min pre-incubation; read-out: Potency (CCR4 antagonist IC50 in the β-arrestin assay)
pIC50: −log10 of the molar value.

record-smiles: Cc1ccc([C@@H](C)Nc2cc(N3CCC([C@H]4CCCN([C@H]5C[C@](C)(C(=O)O)C5)C4)CC3)nc3ccnn23)c(Cl)c1
test-readout: pIC50
val: > 7.00

record-smiles: C[C@@H](Nc1cc(N2CCC([C@H]3CCCN([C@H]4C[C@](C)(C(=O)O)C4)C3)CC2)nc2ncnn12)c1ccc(Cl)cc1F
test-readout: pIC50
val: > 7.00

pIC50 reading for `Cc1cc(Cl)ccc1[C@@H](C)Nc1cc(N2CCC([C@H]3CCCN([C@H]4C[C@](C)(C(=O)O)C4)C3)CC2)nc2ncnn12` : 6.30 to 7.00
